Source listed as patent US8053435B2.

# System: HDAC
# Test Description: Inhibitory activity against HDAC (BIOMOL Quantizyme Assay system, Fluor de Lys substrate)
# Assay type: biochemical
# Measurement Context: Table 7, formula (4) series; HeLa nuclear extract as source of HDAC enzymes; enzyme reaction 1 hr; read-out: HDAC Inhibitory conc. (IC50, μM/ml)
Measurement Name: IC50 (µM)

Here is how some compounds turned out for IC50.
[
  {
    "Compound": "CN(C)CC(C)(C)CNC/C(=C/c1ccc(C(=O)NO)cc1)COc1cccc2ccccc12",
    "Measurement Name": "IC50",
    "Value Unit": "µM",
    "Experimental Value": 0.006
  },
  {
    "Compound": "O=C(NO)c1ccc(/C=C(/CNC2CCN(C3CCCCC3)C2)COc2cccc3ccccc23)cc1 (stereo not shown)",
    "Measurement Name": "IC50",
    "Value Unit": "µM",
    "Experimental Value": 0.04
  }
]

A: COCC(C)NC/C(=C/c1ccc(C(=O)NO)cc1)COc1cccc2ccccc12 (stereo not shown)
B: O=C(NO)c1ccc(/C=C(/CNC2CCN(Cc3ccccc3)C2)COc2cccc3ccccc23)cc1 (stereo not shown)
query: Which of these two has the smaller recorded IC50: A or B ? # reply format: chosen label
result: A
